Organism: Rattus norvegicus
Test: Open TG-GATES - Regimen: Daily Repeat
Type: toxicity, organism-based, Sprague-Dawley
Design: regimen Daily Repeat, gender Male, age 6 weeks
Settings: in vivo, po, 0 mg/kg, […], tissue Blood, route gavage, dose level Control, time 28 day
Would you kindly list APTT for each of these molecules?
# answer = value followed by unit

Summary for this molecule, CN(C)CCC(c1ccc(Cl)cc1)c1ccccn1 (stereo not drawn) [CHLORPHENIRAMINE] : APTT is 17.8 s

Summary for this molecule, COC(=O)C1=C(C)NC(C)=C(C(=O)OC)C1c1ccccc1[N+](=O)[O-] [NIFEDIPINE] : APTT is 16.7 s

Summary for this molecule, Cc1nnc2n1-c1ccc(Cl)cc1C(c1ccccc1Cl)=NC2 [TRIAZOLAM] : APTT is 18.6 s

Summary for this molecule, CC(C)NNC(=O)c1ccncc1 [IPRONIAZID] : APTT is 25.2 s

Summary for this molecule, NC1=NC(=O)C(c2ccccc2)O1 (stereo not drawn) [PEMOLINE] : APTT is 17.4 s

Summary for this molecule, O=C(OC[C@H]1O[C@@H](OC(=O)c2cc(O)c(O)c(OC(=O)c3cc(O)c(O)c(O)c3)c2)[C@H](OC(=O)c2cc(O)c(O)c(OC(=O)c3cc(O)c(O)c(O)c3)c2)[C@@H](OC(=O)c2cc(O)c(O)c(OC(=O)c3cc(O)c(O)c(O)c3)c2)[C@@H]1OC(=O)c1cc(O)c(O)c(OC(=O)c2cc(O)c(O)c(O)c2)c1)c1cc(O)c(O)c(OC(=O)c2cc(O)c(O)c(O)c2)c1 [TANNIC ACID] : APTT is 17.3 s

Summary for this molecule, CNC(=C[N+](=O)[O-])NCCSCc1ccc(CN(C)C)o1 [RANITIDINE] : APTT is 20.9 s

Summary for this molecule, Nc1c2c(nc3ccccc13)CCCC2 [TACRINE] : APTT is 23.1 s

Summary for this molecule, CN/C(=N/CCSCc1nc[nH]c1C)NC#N [CIMETIDINE] : APTT is 20.4 s

Summary for this molecule, Brc1ccccc1 [BROMOBENZENE] : APTT is 17.6 s

Summary for this molecule, CCOc1ccc(NC(C)=O)cc1 [PHENACETIN] : APTT is 23 s

Summary for this molecule, CCCc1cc(=O)[nH]c(=S)[nH]1 [PROPYLTHIOURACIL] : APTT is 16.6 s

Summary for this molecule, CN1C(=O)CCS(=O)(=O)C1c1ccc(Cl)cc1 (stereo not drawn) [CHLORMEZANONE] : APTT is 17.9 s
